System: Plasmodium falciparum
ASSAY INFO: Antiplasmodial activity against Plasmodium falciparum
Type: functional, organism-based

| COMPOUND | IC50 (nM) |
| --- | --- |
| O=CN(O)CCCP(=O)(O)O [FOSMIDOMYCIN] | 1020 |

====

System: Plasmodium falciparum
ASSAY INFO: Antiplasmodial activity against Plasmodium falciparum 3D7 assessed as reduction in parasite growth by measuring DNA content after 3 days by PicoGreen staining based FLUOstar omega microplate reader analysis
Assay type: functional, organism-based
SETTINGS: 3D7, 72 h
pIC50: −log10 of the molar value.
# pIC50 >= 5 gives T, anything below gives F

| COMPOUND | LABEL CLASS |
| --- | --- |
| CC(=O)N(CCC(c1ccc(Cl)c(Cl)c1)P(=O)(O)O)OCc1ccc2ccccc2c1 (stereo not drawn) | F |
| CC(=O)N(CCC(c1ccc(Cl)c(Cl)c1)P(=O)(O)O)OC(C)c1ccc(F)cc1 (stereo not drawn) | T |
| CC(=O)N(O)CCC(c1ccc(Cl)c(Cl)c1)P(=O)(O)O (stereo not drawn) | F |
| CC(=O)N(CCC(c1ccc(Cl)c(Cl)c1)P(=O)(OCOC(=O)C(C)(C)C)OCOC(=O)C(C)(C)C)OC(C)c1ccc(C(F)(F)F)cc1 (stereo not drawn) | F |
| CC(=O)N(CCC(c1ccc(Cl)c(Cl)c1)P(=O)(OCOC(=O)C(C)(C)C)OCOC(=O)C(C)(C)C)OCc1ccc(-c2ccc(C(C)C)cc2)cc1 (stereo not drawn) | F |
| CC(=O)N(CCC(c1ccc(Cl)c(Cl)c1)P(=O)(O)O)OCc1ccc(Br)cc1 (stereo not drawn) | F |
| CC(=O)N(CCC(c1ccc(Cl)c(Cl)c1)P(=O)(O)O)OC(C)c1ccc(C(F)(F)F)cc1 (stereo not drawn) | F |
| CC(=O)N(CCC(c1ccc(Cl)c(Cl)c1)P(=O)(OCOC(=O)C(C)(C)C)OCOC(=O)C(C)(C)C)OC(C)c1ccc(C)cc1 (stereo not drawn) | F |
| CC(=O)N(CCC(c1ccc(Cl)c(Cl)c1)P(=O)(O)O)OC(C)c1ccccc1 (stereo not drawn) | T |
| CC(=O)N(CCC(c1ccc(Cl)c(Cl)c1)P(=O)(OCOC(=O)C(C)(C)C)OCOC(=O)C(C)(C)C)OC(C)c1ccc(Cl)cc1 (stereo not drawn) | F |
| CC(=O)N(CCC(c1ccc(Cl)c(Cl)c1)P(=O)(O)O)OCc1ccc(-c2ccc(C(C)C)cc2)cc1 (stereo not drawn) | F |
| CC(=O)N(CCC(c1ccc(Cl)c(Cl)c1)P(=O)(O)O)OCc1ccc(-c2ccccc2)cc1 (stereo not drawn) | F |
| CC(=O)N(CCC(c1ccc(Cl)c(Cl)c1)P(=O)(OCOC(=O)C(C)(C)C)OCOC(=O)C(C)(C)C)OCc1ccc(Br)cc1 (stereo not drawn) | F |
| CC(=O)N(CCC(c1ccc(Cl)c(Cl)c1)P(=O)(OCOC(=O)C(C)(C)C)OCOC(=O)C(C)(C)C)OCc1ccccc1 (stereo not drawn) | F |
| CC(=O)N(CCC(c1ccc(Cl)c(Cl)c1)P(=O)(O)O)OCCCCc1ccccc1 (stereo not drawn) | F |
| CC(=O)N(CCC(c1ccc(Cl)c(Cl)c1)P(=O)(O)O)OCc1ccc(C(C)C)cc1 (stereo not drawn) | F |
| CC(=O)N(CCC(c1ccc(Cl)c(Cl)c1)P(=O)(O)O)OCc1ccccc1 (stereo not drawn) | F |
| CC(=O)N(CCC(c1ccc(Cl)c(Cl)c1)P(=O)(O)O)OC(C)c1ccc(Cl)cc1 (stereo not drawn) | F |
| CC(=O)N(CCC(c1ccc(Cl)c(Cl)c1)P(=O)(O)O)OC(C)c1ccc(C)cc1 (stereo not drawn) | T |
| CC(=O)N(CCC(c1ccc(Cl)c(Cl)c1)P(=O)(OCOC(=O)C(C)(C)C)OCOC(=O)C(C)(C)C)OC(C)c1ccccc1 (stereo not drawn) | T |
| CC(=O)N(CCC(c1ccc(Cl)c(Cl)c1)P(=O)(OCOC(=O)C(C)(C)C)OCOC(=O)C(C)(C)C)OC(C)c1ccc(F)cc1 (stereo not drawn) | F |
| COc1ccc(C(C)ON(CCC(c2ccc(Cl)c(Cl)c2)P(=O)(OCOC(=O)C(C)(C)C)OCOC(=O)C(C)(C)C)C(C)=O)cc1 (stereo not drawn) | T |
| COc1ccc(C(C)ON(CCC(c2ccc(Cl)c(Cl)c2)P(=O)(O)O)C(C)=O)cc1 (stereo not drawn) | T |

====

TARGET DESC: 1-deoxy-D-xylulose 5-phosphate reductoisomerase, apicoplastic (Plasmodium falciparum (isolate 3D7))
Sequence (whole entry): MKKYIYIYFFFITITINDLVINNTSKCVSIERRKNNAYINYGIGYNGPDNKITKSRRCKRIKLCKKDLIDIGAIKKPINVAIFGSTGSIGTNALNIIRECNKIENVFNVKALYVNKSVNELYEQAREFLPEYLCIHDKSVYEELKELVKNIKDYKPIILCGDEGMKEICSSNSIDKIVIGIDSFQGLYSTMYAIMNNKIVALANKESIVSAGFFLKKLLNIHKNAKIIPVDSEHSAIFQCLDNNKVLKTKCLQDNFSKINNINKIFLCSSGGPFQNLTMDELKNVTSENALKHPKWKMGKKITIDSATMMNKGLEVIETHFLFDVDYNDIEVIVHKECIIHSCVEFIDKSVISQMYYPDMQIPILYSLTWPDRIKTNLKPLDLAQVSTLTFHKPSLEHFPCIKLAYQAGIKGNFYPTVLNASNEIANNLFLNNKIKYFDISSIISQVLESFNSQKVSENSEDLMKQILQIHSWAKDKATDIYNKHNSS
ASSAY INFO: Inhibition of Plasmodium falciparum DXR expressed in Escherichia coli BL21 CodonPlus (DE3)-RIL cells assessed as remaining activity using DOXP as substrate at 100 uM in presence of NADPH by UV-visible spectrophotometry relative to control
READOUT: Activity (%)

| MOLECULE | UNIT SPEC | ENDPOINT RESULT |
| --- | --- | --- |
| CC(=O)N(CCC(c1ccc(Cl)c(Cl)c1)P(=O)(O)O)OCc1ccc2ccccc2c1 (configuration not stated) | % | 46.6 |
| CC(=O)N(CCC(c1ccc(Cl)c(Cl)c1)P(=O)(O)O)OCc1ccc(-c2ccccc2)cc1 (configuration not stated) | % | 27 |
| CC(=O)N(CCC(c1ccc(Cl)c(Cl)c1)P(=O)(O)O)OCCCCc1ccccc1 (configuration not stated) | % | 25.6 |
| CC(=O)N(CCC(c1ccc(Cl)c(Cl)c1)P(=O)(O)O)OCc1ccc(Br)cc1 (configuration not stated) | % | 53.1 |
| CC(=O)N(CCC(c1ccc(Cl)c(Cl)c1)P(=O)(O)O)OC(C)c1ccc(C(F)(F)F)cc1 (configuration not stated) | % | 74.7 |
| CC(=O)N(CCC(c1ccc(Cl)c(Cl)c1)P(=O)(O)O)OCc1ccccc1 (configuration not stated) | % | 26.7 |
| CC(=O)N(CCC(c1ccc(Cl)c(Cl)c1)P(=O)(O)O)OCc1ccc(-c2ccc(C(C)C)cc2)cc1 (configuration not stated) | % | 56.1 |

====

ASSAY INFO: Cytotoxicity against human HepG2 cells assessed as reduction in cell viability after 24 hrs by Cell Titer Glo assay
Assay type: toxicity, cell-based
Recorded measurements of IC50 at 24 h, one per entry
READOUT: IC50 at 24 h

| MOLECULE | ENDPOINT RESULT |
| --- | --- |
| CC(=O)N(CCC(c1ccc(Cl)c(Cl)c1)P(=O)(O)O)OC(C)c1ccc(C)cc1 (centres undefined) | > 200 µM |
| COc1ccc(C(C)ON(CCC(c2ccc(Cl)c(Cl)c2)P(=O)(OCOC(=O)C(C)(C)C)OCOC(=O)C(C)(C)C)C(C)=O)cc1 (centres undefined) | > 140 µM |
| CC(=O)N(CCC(c1ccc(Cl)c(Cl)c1)P(=O)(O)O)OC(C)c1ccc(F)cc1 (centres undefined) | > 200 µM |
| COc1ccc(C(C)ON(CCC(c2ccc(Cl)c(Cl)c2)P(=O)(O)O)C(C)=O)cc1 (centres undefined) | > 200 µM |

====

TARGET DESC: UniProt P9WNS1
Sequence (P9WNS1 whole entry): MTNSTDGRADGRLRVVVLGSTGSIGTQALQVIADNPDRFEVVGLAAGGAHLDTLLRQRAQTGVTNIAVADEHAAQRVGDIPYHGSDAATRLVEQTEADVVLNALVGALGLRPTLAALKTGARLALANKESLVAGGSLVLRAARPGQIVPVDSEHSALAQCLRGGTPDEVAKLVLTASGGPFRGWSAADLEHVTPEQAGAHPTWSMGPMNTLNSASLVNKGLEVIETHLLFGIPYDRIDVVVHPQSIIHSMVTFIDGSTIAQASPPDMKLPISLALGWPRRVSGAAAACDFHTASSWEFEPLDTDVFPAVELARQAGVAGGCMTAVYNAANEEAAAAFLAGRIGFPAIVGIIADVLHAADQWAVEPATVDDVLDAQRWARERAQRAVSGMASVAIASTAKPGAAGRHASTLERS
ASSAY INFO: Inhibition of Mycobacterium tuberculosis DXR expressed in Escherichia coli BL21 CodonPlus (DE3)-RIL cells assessed as remaining activity using DOXP as substrate at 100 uM in presence of NADPH by UV-visible spectrophotometry relative to control
Measured Activity determines class: A: < 60%; B: ≥ 60% and < 80%; C: ≥ 80%

| COMPOUND | LABEL CLASS |
| --- | --- |
| CC(=O)N(O)CCC(c1ccc(Cl)c(Cl)c1)P(=O)(O)O (configuration not stated) | A |
| CC(=O)N(CCC(c1ccc(Cl)c(Cl)c1)P(=O)(O)O)OCCCCc1ccccc1 (configuration not stated) | C |
| CC(=O)N(CCC(c1ccc(Cl)c(Cl)c1)P(=O)(O)O)OC(C)c1ccc(Cl)cc1 (configuration not stated) | B |
| CC(=O)N(CCC(c1ccc(Cl)c(Cl)c1)P(=O)(O)O)OCc1ccc(Br)cc1 (configuration not stated) | B |
| CC(=O)N(CCC(c1ccc(Cl)c(Cl)c1)P(=O)(O)O)OCc1ccc(-c2ccc(C(C)C)cc2)cc1 (configuration not stated) | B |
| CC(=O)N(CCC(c1ccc(Cl)c(Cl)c1)P(=O)(O)O)OC(C)c1ccccc1 (configuration not stated) | B |
| CC(=O)N(CCC(c1ccc(Cl)c(Cl)c1)P(=O)(O)O)OCc1ccc(-c2ccccc2)cc1 (configuration not stated) | C |
| CC(=O)N(CCC(c1ccc(Cl)c(Cl)c1)P(=O)(O)O)OCc1ccccc1 (configuration not stated) | A |
| CC(=O)N(CCC(c1ccc(Cl)c(Cl)c1)P(=O)(O)O)OC(C)c1ccc(C)cc1 (configuration not stated) | A |
